test system: HS 578T breast; assay: NCI-60 one-dose screen, 48 h (100 = growth as untreated, 0 = no growth, -100 = all killed); conditions: 10 µM unless noted
About 83,000 compounds went through this panel and 20% of them were active in at least one assay; those are over-represented in the sample as a whole.
Class field: derived from growth; ranges interval 1 (below 50%), interval 2 (50% to below 80%), interval 3 (80% or more)

# example entries with known answers
[
  {
    "molecule": "COc1cc(OC)cc(-c2cc3ccc(N(C)C)cc3c(=O)[nH]2)c1",
    "class assignment": "interval 1"
  },
  {
    "molecule": "CC(=O)c1c(N)c(C#N)cn1-c1ccc(Cl)cc1Cl",
    "class assignment": "interval 3"
  },
  {
    "molecule": "CC(=O)N1CCN(Cc2ccc3c(NNC(=O)c4cnccn4)nc4cc(F)ccc4n23)CC1",
    "class assignment": "interval 2"
  },
  {
    "molecule": "C#C[C@]1(O)CC[C@H]2[C@@H]3CC=C4c5sc(-c6ccc([N+](=O)[O-])cc6)nc5CC[C@]4(C)[C@H]3CC[C@@]21C",
    "class assignment": "interval 1"
  },
  {
    "molecule": "CC(/C=C1\\SC(=S)N(CCCC(=O)NC(CC(C)C)C(=O)O)C1=O)=C\\c1ccccc1 (configuration not stated)",
    "class assignment": "interval 3"
  },
  {
    "molecule": "Cc1ccc(NC(=O)[C@]23CCC(C)(C)CC2C2=CCC4[C@@]5(C)C[C@@H](O)[C@H](O)[C@@](C)(CO)C5CC[C@@]4(C)[C@]2(C)CC3)cc1 (some centres not stated)",
    "class assignment": "interval 1"
  },
  {
    "molecule": "COC(=O)C[C@](O)(CCCC(C)(C)O)C(=O)O[C@H]1C(OC)=C[C@@]23CCCN2CCc2cc4c(cc2[C@@H]13)OCO4",
    "class assignment": "interval 1"
  },
  {
    "molecule": "COc1ccc(NC(=O)[C@@H](N)Cc2ccccc2)cc1C(=O)Nc1cccc(C2CC(=O)c3c(cc(OC)c(OC)c3OC)O2)c1 (some centres not stated)",
    "class assignment": "interval 2"
  }
]

IN: Place this molecule in its band: Cc1cc(=O)oc2cc(OCCCCOc3ccc(/C=C/C(=O)Nc4ccccc4N)cc3)ccc12
OUT: interval 3

IN: Further, for CN(C)CCn1c2ccccc2c2nc3cc(C(F)(F)F)ccc3nc21 ?
OUT: interval 2
